Biological target: human LPA1 (Homo sapiens)
Construct: expressed in transfected cells; host or cells: CHO-K1
Sequence (Q92633 whole entry): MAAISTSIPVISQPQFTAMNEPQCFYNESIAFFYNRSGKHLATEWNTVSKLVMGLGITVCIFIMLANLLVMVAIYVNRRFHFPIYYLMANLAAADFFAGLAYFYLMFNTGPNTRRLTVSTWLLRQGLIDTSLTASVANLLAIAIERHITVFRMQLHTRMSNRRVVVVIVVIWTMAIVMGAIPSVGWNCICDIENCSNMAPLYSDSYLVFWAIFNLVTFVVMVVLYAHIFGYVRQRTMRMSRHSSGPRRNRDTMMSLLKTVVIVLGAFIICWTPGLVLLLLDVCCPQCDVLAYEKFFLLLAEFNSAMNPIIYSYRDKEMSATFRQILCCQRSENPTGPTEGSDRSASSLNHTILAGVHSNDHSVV
Experiment: In vitro LPA1 calcium flux antagonist assay, Bioduro protocol
Format: cell-based
Settings: CHO-K1 cells overexpressing human LPA1 and G15a; LPA challenge at EC80; calcium mobilization on FLIPR Tetra; read-out: IC50 (nM) in Assay B2
Procedure: In Vitro LPA1 Calcium Flux Antagonist Assay Bioduro Protocol CHO-K1 cells overexpressing human LPA1 and G15a were seeded at a total volume of 20 uL (15000 cells/well) into Matrigel pre-coated 384-well plates (coming -3764) and incubated at 37° C. After overnight incubation, the cells were serum starved for 4 h. […] Calcium mobilization was measured on a FLIPR Tetra (MDS). […] Percentage inhibition is calculated using the following formula: […]
// boundary case: IC50 equal to 30 nM maps to 0.0; strictly smaller maps to 1.0

Dear colleague, could you confirm whether IC50 of CCc1cc(C(=O)O)n2nc(C[C@H](OCC(C)C)[C@H](O)c3cc(OC)c(C)c(OC)c3)cc2c1 [Compound 241] falls below 30 nM? Thanks.
1.0

Check if IC50 falls below 30 nM for COc1cc([C@@H](O)[C@H](Cn2cc3c(=O)n(C)cc(C(=O)O)c3n2)OC2CCCC2)cc(OC)c1C [Compound 174] .
0.0

Please indicate whether the reported IC50 of COc1cc([C@@H](O)[C@H](Cn2cc3nc(C4CC4)cc(C(=O)O)c3n2)OC2CCCC2)cc(OC)c1C [Compound 196] is strictly below 30 nM.
1.0

Say whether its IC50 is strictly beneath 30 nM. Entry: COc1cc([C@@H](O)[C@H](Cc2cc3cc(C4CC4)cc(C(=O)O)n3n2)OCC(C)C)cc(OC)c1C [Compound 242]
1.0

Please let me know if CCOc1cc([C@@H](O)[C@H](Cn2cc3cc(C#N)cc(C(=O)O)c3n2)OC2CCCC2)cc(OCC)c1C [Compound 226] shows IC50 below 30 nM.
1.0

Hi there! Is IC50 for COc1cc([C@@H](O)C(Cc2nc(C3(C(=O)O)CC3)c(C)s2)OC2CCCC2)cc(OC)c1C (stereo partly drawn) [Compound 207] below 30 nM, do you know?
0.0

Strictly below 30 nM in IC50? COc1cc([C@@H](O)[C@H](Cc2nc3c(C(=O)O)cc(C)cc3s2)OCC(C)C)cc(OC)c1C [Compound 234]
1.0

Dear colleague, could you confirm whether IC50 of COc1cc([C@@H](O)[C@H](Cn2cc3nccc(C(=O)O)c3n2)OC2CCCC2)c(C)c(OC)c1C [Compound 199] falls below 30 nM? Thanks.
0.0

For this compound, is IC50 lower than 30 nM? COc1cc([C@@H](O)[C@H](Cc2nc3c(C(=O)O)cc(F)cc3s2)OCC2CCCC2)cc(OC)c1C [Compound 263]
1.0

Please check: IC50 for CCCc1sc(C[C@H](OC2CCCC2)[C@H](O)c2cc(OC)c(C)c(OC)c2)nc1[C@@H](C)C(=O)O [Compound 261] , strictly under 30 nM or not?
0.0

Regarding COc1cc([C@@H](O)[C@H](Cc2cc3cc(C4CC4)cc(C(=O)O)n3n2)OC2CCCC2)cc(OC)c1C [Compound 229] , kindly confirm whether its IC50 is beneath 30 nM.
1.0

Answer whether the compound Cc1ccc([C@@H](O)[C@H](Cn2cc3cccc(C(=O)O)c3n2)OC2CCCC2)cc1O [Compound 151] has IC50 strictly less than 30 nM
0.0

Is IC50 strictly under 30 nM for the entry COc1cc([C@@H](O)[C@H](Cn2cc3nc(C#N)cc(C(=O)O)c3n2)OC2CCCC2)cc(OC)c1C [Compound 212] ?
1.0

Hi there! Is IC50 for COc1cc([C@@H](O)[C@H](Cn2cc3nccc(C(=O)O)c3n2)OCCCc2ccccc2)cc(OC)c1C [Compound 214] below 30 nM, do you know?
0.0

Given COc1cc([C@@H](O)[C@H](Cn2cc3nccc(C(=O)O)c3n2)OC2CCCC2)cc(OC)c1C [Compound 160] , is recorded IC50 strictly lower than 30 nM?
0.0
